Data provenance: ChEMBL document CHEMBL1158188

# assay.protocol: Octanol-water partition coefficient of the compound
# Format: physicochemical
# cond: read-out: log KOW

compound	logP
O=C1OC[C@H]2OC(=O)c3cc(O)c(O)c(O)c3-c3c(O)c(O)c(O)c4c3C(=O)O[C@H]([C@H]3OC(=O)c5c-4c(O)c(O)c(O)c5[C@H]3O)[C@@H]2OC(=O)c2cc(O)c(O)c(O)c2-c2c1cc(O)c(O)c2O [CASTALAGIN]	0.1
O=C1OCC2OC(=O)c3cc(O)c(O)c(O)c3-c3c(O)c(O)c(O)c4c3C(=O)OC(C2OC(=O)c2cc(O)c(O)c(O)c2-c2c1cc(O)c(O)c2O)C1OC(=O)c2c-4c(O)c(O)c(O)c2C1O (configuration not stated) [VESCALAGIN]	0.1
